Entries annotated with measured melting point

smiles repr	melting point
O=C(NCCO)c1ccc(CCN2CCN(Cc3ccccc3Cl)CC2)cc1	121 to 122 °C
COc1ccc2c(c1)C(=O)c1c-2cnc2ccccc12	195 to 196 °C
CCn1cc(C(=O)NCc2ccc(Cl)cc2)c(=O)c2cc(CCl)sc21	199 to 200 °C
COC(=O)c1cc(N)c(C(F)(F)F)cc1NC(C)=O	143 to 152 °C
COc1ccc(-c2ccc3c(C(=O)N(C)C)c(-c4ccccc4)ccc3c2)cc1	171 to 173 °C

---

compound	melting point
CC(C)([C@H](NC(=O)OCC1c2ccccc2-c2ccccc21)C(=O)O)S(C)(=O)=O	189 to 192 °C
O=C1CNc2ncc(-c3cccnc3)cc2N1Cc1ccccc1	58 °C
Cc1noc(C)c1-c1cccc2c1C1(COc3cc4c(cc31)OCCO4)C(=O)N2C (stereo unspecified)	228 to 230 °C
CCCCCCCCCCCCCCCCOC1=C(OCCCCCCCCCCCCCCCC)c2nc3c(Br)sc(Br)c3nc21	71.5 °C
Cc1ccc(C(N)=S)nc1	172 to 173 °C
CCOC(=O)C1=C(C(F)(F)F)Nc2n[nH]cc2C1c1ccc(C(=O)OCC)cc1 (stereo unspecified)	157 to 160 °C
CCOc1cc2cc(C(=O)OC)c(C(=O)OC)c(-c3ccnc(Br)c3)c2cc1OC	203 to 204 °C
N#CC(C#N)C(=O)c1ccoc1	98 to 99 °C
Cc1cccc(C(C)C)c1NC(=O)Nc1c(C)nc(-c2ccccc2)nc1-c1ccccc1Cl	266 to 267 °C
CCCCCCC(=O)Nc1c(Sc2cc(C)cc(C)c2)c(C)c[nH]c1=O	212 to 213 °C
COc1ccc(Cl)cc1C(=O)NCCc1ccc(-c2ccc(O)cc2)cc1	169 °C
C[C@]12CCC(=O)C=C1CC[C@@H]1[C@@H]2CC[C@]2(C(F)F)C(=O)CC[C@@H]12	183 to 184 °C
Cc1ccc(N=CN(C)SN(C2CCCCC2)C2CCCCC2)c(C)c1	97 to 98 °C
CCOC(=O)c1ccc(I)nc1	48 to 49 °C
CC(=O)c1c(C)c(NC(=O)NC(C)(C)C)c(C)c2c1OCC2c1ccc(C(C)C)cc1 (stereo unspecified)	207 to 208 °C
CCCCCCCCCCOC(=O)c1cc(C(=O)OCCCCCCCCCC)cc([N+](=O)[O-])c1	48 to 50 °C
CC(=O)c1c(-c2ccsc2)sc(-c2ccncc2)c1C	98 to 100 °C
Clc1ccn(-c2cccnc2)n1	98 to 106 °C
CS(=O)(=O)Oc1ccccc1S(N)(=O)=O	131 to 132 °C
COc1ccc(S(=O)(=O)Nc2ccccc2NC(=O)c2ccc(OCc3ccccc3)cc2)cc1	148 to 149 °C
O=C(Cc1cccc(O)c1)c1cccc(O)c1	151 to 154 °C

---

Entries annotated with measured melting point
measured quantity: melting point

smiles repr	measured quantity	experimental value
COC(=O)C1=C(C)NC(C)=C(C(=O)OC)C1c1ccccc1NC(C)=O	melting point	284 to 285 °C
CCCn1nc(-c2cnc3[nH]cc(C(=O)N[C@H](C)C(=O)N4CC(C#N)C4)c3n2)c2ccc(Cl)cc21	melting point	219 to 221 °C
O=C(O)CCCOc1ccc(Nc2ccccc2)cc1	melting point	110 to 111 °C
Nc1cc(N)c(Cl)cc1Cl	melting point	138 to 141 °C
CCCCn1c(=O)c2c(NC)n[nH]c2n(CCOCc2ccccc2)c1=O	melting point	214 to 216 °C

---

molecule	melting point
CCOC(=O)CC(=O)c1c(F)cc(Br)cc1F	49 to 52 °C
CCOC(=O)[C@@H]1CSC=CN1C(=O)[C@@H](Cc1ccccc1)N1C(=O)c2ccccc2C1=O (relative stereo)	193 °C
NC[C@@H]1CNc2cccc(-c3ccc(Cl)cc3Cl)c2O1	163 °C
CC(C)c1nccn1S(=O)(=O)c1c[nH]cn1	118 to 120 °C
c1ccc(Nc2nnc(-c3cccnc3)s2)cc1	252 to 255 °C
CCc1cc(Cl)cc2c1OC(C(F)(F)F)C(C(=O)O)=C2 (stereo not given)	197 to 199 °C
OCCNc1nc(Cl)nc2c1ncn2C1CC(O)C(CO)O1 (stereo not given)	167 to 168 °C
O=[N+]([O-])c1c(Br)nn(CCO)c1Br	103 to 105 °C
O=C(O)c1cn(-c2ccc(F)cc2)c2c(F)c(N3CC4=C(CNC4)C3)c(F)cc2c1=O	195 to 198 °C
Cc1ccc(Nc2cccc3c2OC(COS(=O)(=O)c2ccc(C)cc2)C3)cc1 (stereo not given)	118 to 120 °C

---

Entries annotated with measured melting point

compound	melting point
CC12CC=CCC1CCC1C2CCC2(C)C(C(N)=O)CCC12 (stereo not given)	199 to 202 °C
O=C(Nc1ccc(-n2nc(C3CC3)cc2C2CC2)c(F)c1)c1c(Cl)cncc1Cl	280 to 281 °C
CCOC(=O)Cc1nnnn1C	64 to 66 °C
COc1cc(OCCCN2CCc3cc(OC)c(OC)cc3C2)ccc1NC(=O)c1cccc2c(=O)c3cccc(F)c3[nH]c12	152 °C
N#CC(Cl)Cc1cccc([N+](=O)[O-])c1 (stereo not given)	90 °C
CCOc1nc(-c2ccco2)c2ncn(Cc3ccc(OC)cc3)c2n1	137 to 138 °C
CCCCCCCCCCCCCCCCNc1ccc(C#N)cc1	63 to 64 °C
Nc1cc(=O)[nH]c2c1cnn2-c1ccccc1	223 to 225 °C
CCN(CC)Cc1cc(C(N)=O)cc(Br)c1N	140 to 142 °C
Nc1cc(Cl)ccc1C(=O)NCCCc1cccnc1	145 to 147 °C
CC(C)c1cccc(C(C)C)c1NC(=O)NCCN1CCN(CCSc2nc3ncccc3o2)CC1	175 to 176 °C
C=CCCC(C#N)(C#N)Cc1ccc(C#N)cc1	109 °C
O=C1CCCc2scnc21	121 to 122 °C
CC(=O)N[C@H]1CC[C@H](CCN2CCN(c3ncc(C)c4c3CCO4)CC2)CC1	196 °C
CC(C)(C)Nc1c(Nc2cnc3ccccc3c2)c(=O)c1=O	257 to 260 °C
CC#CCOc1ccc(S(=O)(=O)C(C(=O)NO)c2ccc(OC)cc2)cc1 (stereo not given)	190 °C
O=C(O)COc1ccc(CC2SC(=O)NC2=O)cc1 (stereo not given)	181 to 183 °C
Nc1ncccc1-c1nc2ccc(-c3cn[nH]c3)nc2n1-c1ccc(CNC(=O)c2cccc(F)c2)cc1	267 to 269 °C
CN(C)n1c(Br)nn(C(=O)Oc2ccccc2)c1=O	136 °C
CCOC(=O)CC(CCCNC(=O)c1csc(NC(=O)NCc2ccccc2)n1)c1ccccc1 (racemic)	93 °C
O=C(O)Cc1ccc(NC(=O)C(CCc2ccccc2)NS(=O)(=O)c2ccc(Br)cc2)cc1 (racemic)	155 to 160 °C
CC12CCC(=O)C=C1CCC1C2=CCC2(C)C1CCC2(O)C(=O)CO (stereo not given)	248 °C
Cc1cc(C#CC=O)nc(Oc2cc(C(F)(F)F)nn2C)c1	73 °C
Cc1ccnc(Nc2nc(-c3c[nH]nc3C(O)c3ccccc3)cs2)n1 (stereo not given)	250 °C
CN1CCN(c2c(F)c(F)c([N+](=O)[O-])c(NC3CC3)c2F)CC1	75 °C
N#CN1CCC(c2nn(-c3ccc(F)cc3)c3ccccc23)CC1	108 to 110 °C
CC1(C)CC(NC(=O)Nc2ccccc2)c2cc(C#N)ccc2O1 (stereo not given)	214 to 215 °C
CC(CCCC(C)(C)O)C1CCC2C3CCC4(O)CC(O)CCC4(C)C3CCC12C (stereo not given)	202 to 204 °C
COc1cc([N+](=O)[O-])c(N)cc1Cl	128 to 129 °C
Oc1cc2c(cc1-c1nc3cc(Cl)ccc3o1)oc1ccccc12	244 to 246 °C
CCC(C)(C)c1ccc(O)c(C(=O)Nc2ccc([N+](=O)[O-])cc2C)c1	150 to 151 °C
CCCC#Cc1ccnc2c1c(C(C)=O)cn2S(=O)(=O)c1ccccc1	134 to 136 °C
COc1ccc(CSC(C)(C)C(O)(CO)c2ccc(F)cc2F)cc1 (stereo not given)	113 °C
Cn1nnnc1SCC1c2cc(OC(=O)c3cccs3)c(OC(=O)c3cccs3)cc2CCN1C(=O)OCC(Cl)(Cl)Cl (stereo not given)	139 to 146 °C
COc1ccc(OC)c(P(=O)(C(=O)c2c(C)cc(C)cc2C)C(=O)c2c(C)cc(C)cc2C)c1	161 °C
COC(CCNC(=O)C(F)(F)F)(c1ccccc1)c1ccccc1	108 to 110 °C
CCOC(=O)Cn1c(=O)c2cc(Cc3ncc[nH]3)ccc2n(Cc2ccc(Cl)c(Cl)c2)c1=O	201 to 202 °C
COc1cc(N2[C@H](C)C[C@](C)(O)[C@@H]2C)ccc1C#N	121 to 123 °C
Cc1nn(C)c(C)c1Oc1cc(Cl)cc(C#N)c1	114 to 116 °C
COc1ccc2c(c1)c1c(n2C(=O)c2ccc(Cl)cc2)CCC(C(=O)O)C1 (stereo not given)	269 to 273 °C
